ASSAY PROTOCOL: physchem
CONDITION DETAILS: pH 7.9, Solubility Conc., pH 7.9; vehicle 10 mM phosphate
Positions of bridges follow the written chain, without caps; N, C: chain ends. Non-standard residues stand in square brackets, D forms with d. Residues, ends and D or L forms follow the SMILES beside them. *: point of attachment. Lys(CH2CO2H)2 = N[C@@H](CCCCN(CC(=O)O)CC(=O)O)C(=O)O; X1 = O=C(O)CCCCCCCCCCCCCCCCC(=O)NCCOCCOCCN*
EXPERIMENTAL ENDPOINT: solubility (µM)
Give a bare numeral; the unit µM is implied.

(Q) Quick one: give measured solubility for CC(=O)N[C@H]1CCCCNC(=O)C[C@@H](C(=O)N2CCC[C@H]2C(=O)N[C@@H](CO)C(=O)N[C@@H](CO)C(=O)N[C@@H](CO)C(=O)N[C@@H](CCCCN(CC(=O)O)CC(=O)O)C(=O)N[C@@H](CO)C(=O)N[C@@H](CO)C(=O)NCCOCCOCCNC(=O)CCCCCCCCCCCCCCCCC(=O)O)NC(=O)[C@H](Cc2c[nH]c3ccccc23)NC(=O)[C@H](CCCNC(=N)N)NC(=O)[C@@H](Cc2ccccc2)NC(=O)[C@H](Cc2c[nH]cn2)NC1=O [Example 53] (Ac-KH[dF]RWDPSSS[Lys(CH2CO2H)2]SS-X1; lactam 1-6)
(A) 425

---

ASSAY PROTOCOL: physchem
CONDITION DETAILS: pH 6.3, Solubility Conc.
Positions of bridges follow the written chain, without caps; N, C: chain ends. Non-standard residues stand in square brackets, D forms with d. Residues, ends and D or L forms follow the SMILES beside them. Groups on a side chain read outwards from the residue. *: point of attachment. Lys(CH2CO2H)2 = N[C@@H](CCCCN(CC(=O)O)CC(=O)O)C(=O)O; C17 diacid = O=C(O)CCCCCCCCCCCCCCCC(=O)*; AEEA = NCCOCCOCC(=O)O
EXPERIMENTAL ENDPOINT: solubility (µM)
Give a bare numeral; the unit µM is implied.

(Q) Quick one: give measured solubility for CC(=O)N[C@H]1CCCCNC(=O)CC[C@@H](C(=O)N2CCC[C@H]2C(=O)N2CCC[C@H]2C(=O)N[C@@H](Cc2c[nH]cn2)C(=O)N[C@@H](CCC(=O)O)C(=O)N[C@@H](CCCCN(CC(=O)O)CC(=O)O)C(=O)N[C@@H](CCCCNC(=O)COCCOCCNC(=O)CCCCCCCCCCCCCCCC(=O)O)C(N)=O)NC(=O)[C@H](Cc2c[nH]c3ccccc23)NC(=O)[C@H](CCCNC(=N)N)NC(=O)[C@@H](Cc2ccccc2)NC(=O)[C@H](Cc2c[nH]cn2)NC1=O [Example 7] (Ac-KH[dF]RWEPPHE[Lys(CH2CO2H)2]K([AEEA-C17 diacid])-NH2; lactam 1-6)
(A) 173

---

ASSAY PROTOCOL: physchem
CONDITION DETAILS: pH 6.5, Solubility Conc.
Positions of bridges follow the written chain, without caps; N, C: chain ends. Non-standard residues stand in square brackets, D forms with d. Residues, ends and D or L forms follow the SMILES beside them. Groups on a side chain read outwards from the residue. *: point of attachment. Lys(CH2CO2H)2 = N[C@@H](CCCCN(CC(=O)O)CC(=O)O)C(=O)O; X1 = O=C(O)CCCCCCCCCCCCCCCCC(=O)NCCOCCOCCN*; C18 diacid = O=C(O)CCCCCCCCCCCCCCCCC(=O)*; C17 diacid = O=C(O)CCCCCCCCCCCCCCCC(=O)*; C16 diacid = O=C(O)CCCCCCCCCCCCCCC(=O)*; Orn = NCCC[C@H](N)C(=O)O; AEEA = NCCOCCOCC(=O)O
EXPERIMENTAL ENDPOINT: solubility (µM)
Give a bare numeral; the unit µM is implied.

(Q) Quick one: give measured solubility for CC(=O)N[C@H]1CCC(=O)NCCC[C@@H](C(=O)N2CCC[C@H]2C(=O)N2CCC[C@H]2C(=O)N[C@@H](CC(=O)O)C(=O)N[C@@H](CCCCN(CC(=O)O)CC(=O)O)C(=O)N[C@@H](CCCCNC(=O)COCCOCCNC(=O)CCCCCCCCCCCCCCC(=O)O)C(N)=O)NC(=O)[C@H](Cc2c[nH]c3ccccc23)NC(=O)[C@H](CCCNC(=N)N)NC(=O)[C@@H](Cc2ccccc2)NC(=O)[C@H](Cc2c[nH]cn2)NC1=O [Example 13] (Ac-EH[dF]RW[Orn]PPD[Lys(CH2CO2H)2]K([AEEA-C16 diacid])-NH2; lactam 1-6)
(A) 469

(Q) Quick one: give measured solubility for CC(=O)N[C@H]1CCC(=O)NCCC[C@@H](C(=O)N2CCC[C@H]2C(=O)N2CCC[C@H]2C(=O)N[C@@H](CC(=O)O)C(=O)N[C@@H](CCCCN(CC(=O)O)CC(=O)O)C(=O)N[C@@H](CCCCNC(=O)COCCOCCNC(=O)CCCCCCCCCCCCCCCCC(=O)O)C(N)=O)NC(=O)[C@H](Cc2c[nH]c3ccccc23)NC(=O)[C@H](CCCNC(=N)N)NC(=O)[C@@H](Cc2ccccc2)NC(=O)[C@H](Cc2c[nH]cn2)NC1=O [Example 26] (Ac-EH[dF]RW[Orn]PPD[Lys(CH2CO2H)2]K([AEEA-C18 diacid])-NH2; lactam 1-6)
(A) 478

(Q) Quick one: give measured solubility for CC(=O)N[C@H]1CCCNC(=O)C[C@@H](C(=O)N2CCC[C@H]2C(=O)N2CCC[C@H]2C(=O)N[C@@H](CCCNC(=N)N)C(=O)N[C@@H](CCC(=O)O)C(=O)N[C@@H](CCCCN(CC(=O)O)CC(=O)O)C(=O)N[C@@H](CO)C(=O)N[C@@H](CO)C(=O)NCCOCCOCCNC(=O)CCCCCCCCCCCCCCCCC(=O)O)NC(=O)[C@H](Cc2c[nH]c3ccccc23)NC(=O)[C@H](CCCNC(=N)N)NC(=O)[C@@H](Cc2ccccc2)NC(=O)[C@H](Cc2c[nH]cn2)NC1=O [Example 50] (Ac-[Orn]H[dF]RWDPPRE[Lys(CH2CO2H)2]SS-X1; lactam 1-6)
(A) 57

(Q) Quick one: give measured solubility for CC(=O)N[C@H]1CCCCNC(=O)C[C@@H](C(=O)N2CCC[C@H]2C(=O)N[C@@H](CO)C(=O)N[C@@H](Cc2c[nH]cn2)C(=O)N[C@@H](CCC(=O)O)C(=O)N[C@@H](CCCCN(CC(=O)O)CC(=O)O)C(=O)N[C@@H](CCCCNC(=O)COCCOCCNC(=O)CCCCCCCCCCCCCCCC(=O)O)C(N)=O)NC(=O)[C@H](Cc2c[nH]c3ccccc23)NC(=O)[C@H](CCCNC(=N)N)NC(=O)[C@@H](Cc2ccccc2)NC(=O)[C@H](Cc2c[nH]cn2)NC1=O [Example 49] (Ac-KH[dF]RWDPSHE[Lys(CH2CO2H)2]K([AEEA-C17 diacid])-NH2; lactam 1-6)
(A) 248

---

Would you kindly list solubility for each of these compounds?
ASSAY PROTOCOL: physchem
CONDITION DETAILS: pH 7.9, Solubility Conc.
Positions of bridges follow the written chain, without caps; N, C: chain ends. Non-standard residues stand in square brackets, D forms with d. Residues, ends and D or L forms follow the SMILES beside them. Groups on a side chain read outwards from the residue. *: point of attachment. Lys(CH2CO2H)2 = N[C@@H](CCCCN(CC(=O)O)CC(=O)O)C(=O)O; X1 = O=C(O)CCCCCCCCCCCCCCCCC(=O)NCCOCCOCCN*; C18 diacid = O=C(O)CCCCCCCCCCCCCCCCC(=O)*; C16 diacid = O=C(O)CCCCCCCCCCCCCCC(=O)*; hCys = N[C@@H](CCS)C(=O)O; Orn = NCCC[C@H](N)C(=O)O; Dab = NCC[C@H](N)C(=O)O; AEEA = NCCOCCOCC(=O)O
Give a bare numeral; the unit µM is implied.

(Q) Quick one: give measured solubility for CC(=O)N[C@H]1CCC(=O)NCCC[C@@H](C(=O)N2CCC[C@H]2C(=O)N2CCC[C@H]2C(=O)N[C@@H](CC(=O)O)C(=O)N[C@@H](CCCCN(CC(=O)O)CC(=O)O)C(=O)N[C@@H](CCCCNC(=O)COCCOCCNC(=O)CCCCCCCCCCCCCCCCC(=O)O)C(N)=O)NC(=O)[C@H](Cc2c[nH]c3ccccc23)NC(=O)[C@H](CCCNC(=N)N)NC(=O)[C@@H](Cc2ccccc2)NC(=O)[C@H](Cc2c[nH]cn2)NC1=O [Example 26] (Ac-EH[dF]RW[Orn]PPD[Lys(CH2CO2H)2]K([AEEA-C18 diacid])-NH2; lactam 1-6)
(A) 478

(Q) Quick one: give measured solubility for CC(=O)N[C@H]1CSSC[C@@H](C(=O)N2CCC[C@H]2C(=O)N2CCC[C@H]2C(=O)N[C@@H](CCCCN)C(=O)N[C@@H](CCC(=O)O)C(=O)N[C@@H](CCC(=O)O)C(=O)N[C@@H](CCCCNC(=O)COCCOCCNC(=O)CCCCCCCCCCCCCCC(=O)O)C(N)=O)NC(=O)CNC(=O)[C@H](Cc2c[nH]c3ccccc23)NC(=O)[C@H](CCCNC(=N)N)NC(=O)[C@@H](Cc2ccccc2)NC(=O)[C@H](Cc2c[nH]cn2)NC(=O)[C@H](CCC(=O)O)NC1=O [Example 68] (Ac-CEH[dF]RWGCPPKEEK([AEEA-C16 diacid])-NH2; disulfide 1-8)
(A) 188

(Q) Quick one: give measured solubility for CC(=O)N[C@H]1CCCNC(=O)C[C@@H](C(=O)N2CCC[C@H]2C(=O)N2CCC[C@H]2C(=O)N[C@@H](CCCNC(=N)N)C(=O)N[C@@H](CCC(=O)O)C(=O)N[C@@H](CCCCN(CC(=O)O)CC(=O)O)C(=O)N[C@@H](CO)C(=O)N[C@@H](CO)C(=O)NCCOCCOCCNC(=O)CCCCCCCCCCCCCCCCC(=O)O)NC(=O)[C@H](Cc2c[nH]c3ccccc23)NC(=O)[C@H](CCCNC(=N)N)NC(=O)[C@@H](Cc2ccccc2)NC(=O)[C@H](Cc2c[nH]cn2)NC1=O [Example 50] (Ac-[Orn]H[dF]RWDPPRE[Lys(CH2CO2H)2]SS-X1; lactam 1-6)
(A) 208

(Q) Quick one: give measured solubility for CC(=O)N[C@H]1CCCNC(=O)C[C@@H](C(=O)N2CCC[C@H]2C(=O)N2CCC[C@H]2C(=O)N[C@@H](CCCNC(=N)N)C(=O)N[C@@H](CCC(=O)O)C(=O)N[C@@H](CCCCN(CC(=O)O)CC(=O)O)C(=O)N[C@@H](CCCCNC(=O)COCCOCCNC(=O)CCCCCCCCCCCCCCC(=O)O)C(N)=O)NC(=O)[C@H](Cc2c[nH]c3ccccc23)NC(=O)[C@H](CCCNC(=N)N)NC(=O)[C@@H](Cc2ccccc2)NC(=O)[C@H](Cc2c[nH]cn2)NC1=O [Example 42] (Ac-[Orn]H[dF]RWDPPRE[Lys(CH2CO2H)2]K([AEEA-C16 diacid])-NH2; lactam 1-6)
(A) 476

(Q) Quick one: give measured solubility for CC(=O)N[C@H]1CCSSC[C@@H](C(=O)N[C@@H](CO)C(=O)N2CCC[C@H]2C(=O)N[C@@H](CCCCN)C(=O)N[C@@H](CCC(=O)O)C(=O)N[C@@H](CCCCN(CC(=O)O)CC(=O)O)C(=O)N[C@@H](CCCCNC(=O)COCCOCCNC(=O)CCCCCCCCCCCCCCC(=O)O)C(N)=O)NC(=O)[C@H](Cc2c[nH]c3ccccc23)NC(=O)[C@H](CCCNC(=N)N)NC(=O)[C@@H](Cc2ccccc2)NC(=O)[C@H](Cc2c[nH]cn2)NC1=O [Example 60] (Ac-[hCys]H[dF]RWCSPKE[Lys(CH2CO2H)2]K([AEEA-C16 diacid])-NH2; disulfide 1-6)
(A) 450

(Q) Quick one: give measured solubility for CC(=O)N[C@H]1CCNC(=O)C[C@@H](C(=O)N2CCC[C@H]2C(=O)N2CCC[C@H]2C(=O)N[C@@H](CCCNC(=N)N)C(=O)N[C@@H](CCC(=O)O)C(=O)N[C@@H](CCCCN(CC(=O)O)CC(=O)O)C(=O)N[C@@H](CO)C(=O)N[C@@H](CO)C(=O)NCCOCCOCCNC(=O)CCCCCCCCCCCCCCCCC(=O)O)NC(=O)[C@H](Cc2c[nH]c3ccccc23)NC(=O)[C@H](CCCNC(=N)N)NC(=O)[C@@H](Cc2ccccc2)NC(=O)[C@H](Cc2c[nH]cn2)NC1=O [Example 9] (Ac-[Dab]H[dF]RWDPPRE[Lys(CH2CO2H)2]SS-X1; lactam 1-6)
(A) 259
